- System: response to skin puncture
- test.details: Anaesthesia by infiltration (subcutaneous, back puncture)
- Type: in vivo, guinea pigs
- study.conditions: lidocaine = 1
Quick list: Infiltration anaesthesia activity with respect to lidocaine per entry.
Simply state the number, no unit and no words.

| structure.smiles | measurement.target | value |
| --- | --- | --- |
| Cc1cccc(C)c1NC(=O)c1cccc(CN2CCOCC2)c1 | response to skin puncture | 0.79 |
| CCN(CC)Cc1ccccc1C(=O)Nc1c(C)cccc1C | response to skin puncture | 3.00 |
| Cc1cccc(C)c1NC(=O)c1ccccc1CN1CCOCC1 | response to skin puncture | 0.32 |
| CCN(CC)Cc1cccc(C(=O)Nc2c(C)cccc2C)c1 | response to skin puncture | 3.26 |
| Cc1cccc(C)c1NC(=O)c1ccc(CN2CCCC2)cc1 | response to skin puncture | 0.16 |

## Input Suppose we examine the compound Cc1cccc(C)c1NC(=O)c1ccccc1CN1CCCC1 ; what Infiltration anaesthesia activity with respect to lidocaine value has been reported?
## Output 2.20

## Input Suppose we examine the compound CCN(CC)Cc1ccccc1C(=O)Nc1c(C)cccc1Cl ; what Infiltration anaesthesia activity with respect to lidocaine value has been reported?
## Output 2.68

## Input Suppose we examine the compound Cc1cccc(C)c1NC(=O)c1ccc(CN2CCCCC2)cc1 ; what Infiltration anaesthesia activity with respect to lidocaine value has been reported?
## Output 2.67

## Input Suppose we examine the compound CCN(CC)Cc1ccc(C(=O)Nc2c(C)cccc2C)cc1 ; what Infiltration anaesthesia activity with respect to lidocaine value has been reported?
## Output 0.09

## Input Suppose we examine the compound CCN(CC)Cc1ccccc1C(=O)Nc1c(C)cccc1C(=O)OC ; what Infiltration anaesthesia activity with respect to lidocaine value has been reported?
## Output 1.74
